Where do the numbers come from? From the supplement of paper PMC9170038.

System: K4 kissing-loop RNA reporter;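 also: bound reporter read as fluorescence of individual clusters on recovered sequencing chips by microscopy, with normalized cluster intensities fitted with a binding model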
Assay: apparent KD of K4 kissing-loop reporter; higher = weaker reporter binding
Settings: Eterna round: R107; input ligand: arginine 13.2 mM
Tag: y if measured apparent KD of K4 kissing-loop reporter is not below 100 nM, n if it is.

RECORD SEQUENCE: GUCUCAAAAGAGGCAAGCACUCACGAGGACAAGGAUAUCAUAUCAAUGAGAAGGUGUCCUCGUCCUCAGUGAUGUUGAGGAGUGC [Omei KL FMN A SS E v4]
CATEGORY: y

Could you verify whether the entry UAAGCUCUGACGGCCGCCACUGCACGUGAAUCAGUGGUGGCUAACAUGAGUGAUGUUCAUGUAAGCAGGACCGGGUCAGAGCUAA [KL-XTryp-B14 #analogue] shows apparent KD of K4 kissing-loop reporter of no less than 100 nM?
n

Could you verify whether the entry UGUCGAGUGAUGUUCGAUUUGGUGCAUGCAGAGGAUAUAGGGUGGGCUAGAAGGCUGAAAAGUGCUUCGAGUGAUGUUCGAAGUU [Exclusion FMN A GF10] shows apparent KD of K4 kissing-loop reporter of no less than 100 nM?
y

Could you verify whether the entry AAGUGAUGUUGUAGUGAUGUUGUGAUGUUGCAGGAUAUAUAGUGAUGUAGAAGGGUAUGUACUUAUUUUUUUUUUGAGUUUUGUU [xgghzrmullin] shows apparent KD of K4 kissing-loop reporter of no less than 100 nM?
n

Could you verify whether the entry UUUAUAUAGUCGGCCGCCACUGAUUUUUUUAUAUGUUUAUGUUUAUACGAGUGAUGUUCGAUAUACAGGACCGGGACUUUUGUUA [JR_SSTryptoB_Sub018] shows apparent KD of K4 kissing-loop reporter of no less than 100 nM?
y

Could you verify whether the entry CGGCGCGGCGCGGCCGCCACUGCGCCUGGGUGCUCGCCGAGUGAUGUUCGUCGGCGGUUGGGUGGCAGGACCGGGUGCCGGCCCG [BDazzled - #18 SS Tryptophan B] shows apparent KD of K4 kissing-loop reporter of no less than 100 nM?
y

Could you verify whether the entry GGAUCCACCAGUGAUGUUGGAGAAAACUCUAAGGAUAUGACGAAAGUCAGAAGGUAGUAGACUGGACAAAGUCCGGUCGGAUCCA [FmnA 23 U30+A56] shows apparent KD of K4 kissing-loop reporter of no less than 100 nM?
y

Could you verify whether the entry GCUAUGGUAGGAAGGAGCGCGGACGAUAUUUAUCGAGUGAUGUUCGAAUAAUUAAAUAAAACGCAGGUAGGUCGCCUACUAUAGC [Arginine B K4 27] shows apparent KD of K4 kissing-loop reporter of no less than 100 nM?
y

Could you verify whether the entry UGAUACCAGACGGCCGCCACUAGACCAGUCAAAGACUGGAAGUGAUGUUUGAGGAGUGAUGUUCCUAGGACCGGGUCUGGUAUCU [TrypBX 3 #Palindromic #SwitchBubble #StaticStem] shows apparent KD of K4 kissing-loop reporter of no less than 100 nM?
n

Could you verify whether the entry UGCACGUAGUGAUGUUACAGCAAGUUUAUGAAGGAUAUGAGGUUAGUCAGAAGGUCAGCCGUCUCGUUGUAAGCACCUUAUCAUU [theeternabot_exclusion_KL_FMN_A_14] shows apparent KD of K4 kissing-loop reporter of no less than 100 nM?
y

====

Tested on: MS2 coat protein
Test: apparent KD of MS2 coat protein; designed switch direction (-1 OFF switch, 1 ON switch): -1; higher = weaker reporter binding
Details: input ligand: FMN 200 uM
PROPERTY NAME: apparent KD of MS2 coat protein (nM)
Respond numerically; units are nM and should not be typed.

Consider the following illustrative entries.
RECORD SEQUENCE: UCUGCCGCCGUGAGGAUAUGCCCGCGCGCCCGCGGGCAGAAGGCACAUGAGGAUCACCCAUGUCCCGCGGCAUU [salish99_bmx4_r4_128] (Eterna round: R97, puzzle: Brourd's mod of Exclusion 4)
EXPERIMENTAL TARGET: MS2 coat protein
apparent KD of MS2 coat protein, nM: 36.4

RECORD SEQUENCE: CAGUACUGAGGAUAUACAUGAGGAUCACCCAUGUGUUCCAGCUAGGAUACUAGCAAGUGUAGAAGGCAGUACUG [Mat - Exclusion 3 - Eli Mod - D7] (Eterna round: R97, puzzle: Exclusion 3)
EXPERIMENTAL TARGET: MS2 coat protein
apparent KD of MS2 coat protein, nM: 188

RECORD SEQUENCE: CCUAUGUGAGGAUAUCACUGGUCUUUUCAUUAGAUGAUCAGUGAGAAGGCACAUGAGGAUCACCCAUGUCAGUG [Ex4 - 3 - 53] (Eterna round: R96, puzzle: Exclusion 4)
EXPERIMENTAL TARGET: MS2 coat protein
apparent KD of MS2 coat protein, nM: 48

RECORD SEQUENCE: UAGCAUUGCCUUUGGUAGUGCUAUACAUGAGGAUCACCCAUGUAGGAUAUGGUCGGCUUUGCUGACCAGAAGGACAUGUGUAUU [MOD2 ENG3 1.04 by JL] (Eterna round: R96, puzzle: Exclusion NG 3)
EXPERIMENTAL TARGET: MS2 coat protein
apparent KD of MS2 coat protein, nM: 159

# context switch: different sequence, same apparent KD of MS2 coat protein
Give apparent KD of MS2 coat protein (MS2 coat protein) of the following sequence: AGAGCACGAGGAUAUACAAGGAUAACUCGCAGAUCGUCAGUACAUGAGGAUCACCCAUGUAGAAGGUGUUAGCA [Eternabot (Original) Solution 6] (Eterna round: R97, puzzle: Exclusion 2)
41.2

====

Tested on: MS2 coat protein
Assay: apparent KD of MS2 coat protein; designed switch direction (-1 OFF switch, 1 ON switch): 1; higher = weaker reporter binding
Settings: input ligand: FMN 200 uM
Tag: Met if measured apparent KD of MS2 coat protein is not below 20 nM, Not met if it is.

For orientation, consider the following solved cases.
RECORD SEQUENCE: GUAGCAUACCGAGGAUAUUCAUAUUACAUGAGGAUCACCCAUGUUAUAGGCCGAUUACGGCCUUGGGAGAAGGCGGAAUGCUAC [Xeonanis - 20 Mod24] (Eterna round: R96, puzzle: Same State NG 2)
EXPERIMENTAL TARGET: MS2 coat protein
CATEGORY: Not met
--
RECORD SEQUENCE: GACCGCGAGGAAGGAUAUCGAGCCUUAUUGGCUCGAGAAGGUCCAUAAAGGACAUGAGGAUCACCCAUGUGGUGAGAAGCGGUC [Mat - Same State NG 1 - JL mod - D76] (Eterna round: R96, puzzle: Same State NG 1)
EXPERIMENTAL TARGET: MS2 coat protein
CATEGORY: Met
--
RECORD SEQUENCE: GGAAAGAGGUCAGGAUAUGAAUGUUUGGGACAUGAGGAUCACCCAUGUAAUAGAAGAAAUCUACAUUAGAAGGGACAAGGAAGG [AK SSNG2-V2-6] (Eterna round: R96, puzzle: Same State NG 2)
EXPERIMENTAL TARGET: MS2 coat protein
CATEGORY: Met
--
RECORD SEQUENCE: UGGCUCAGACGAGGAUAUGAUCAUGGCGCUUCGGCGCAUACAUGAGGAUCACCCAUGUAAAGUGAUCAGAAGGUGUCUGAGCCU [SSNG2/7-B3] (Eterna round: R96, puzzle: Same State NG 2)
EXPERIMENTAL TARGET: MS2 coat protein
CATEGORY: Not met

Moving on to the next sequence.
Could you verify whether the entry AACAGACAUGAGGAUCACCCAUGUAGAAUUAUGGGAGGAUAUACAAAGACGAGAGUCAGAGUAGAAGGCCUAGGAC [salish99-ss1-163] (Eterna round: R96, puzzle: Same State 1) shows apparent KD of MS2 coat protein of no less than 20 nM?
Met

====

System: MS2 coat protein
Test: apparent KD of MS2 coat protein; designed switch direction (-1 OFF switch, 1 ON switch): -1; higher = weaker reporter binding
Conditions: input ligand: none
apparent KD of MS2 coat protein reference
Respond numerically; units are nM and should not be typed.

Consider the following illustrative entries.
RECORD SEQUENCE: GUAAUUAAUGUAGGAUAUGCAAGGCGAACCUAAGCAGAAGGACAUGUGGAUCACCCAUGACAUGAGGAUCACCCAUGUAUCGCU [salish99_ExNG1_r4_005] (Eterna round: R96, puzzle: Exclusion NG 1)
UNIT TEXT: nM
EXPERIMENTAL RESULT: 212

RECORD SEQUENCE: UGAUCUAGCGGAGGAUAUACAUGAGGAUCACCCAUGUAGUAGUGAGUUGCGUACAGCUCACUUGUGUAGAAGGCCGCUAGAUCU [JL ENG2 3.59] (Eterna round: R96, puzzle: Exclusion NG 2)
UNIT TEXT: nM
EXPERIMENTAL RESULT: 12.7

RECORD SEQUENCE: UUUUUAUAUGAAGGAUAUACUUAACAUGAGGAUCACCCAUGUGGUGUUGUGAGUGAGUGAGUUUAGUAGAAGGUCAAUAAUUUU [JMF's solution 9] (Eterna round: R96, puzzle: Exclusion NG 2)
UNIT TEXT: nM
EXPERIMENTAL RESULT: 286

RECORD SEQUENCE: GACAGCGGAGGAUAUGCCGUAGAUUACAUGAGGAUCACCCAUGUGGGCUGUAAGUAAUAGGCAGAAGGCUGCCGUU [Eternabot (Original) Solution 33] (Eterna round: R97, puzzle: Exclusion 5)
UNIT TEXT: nM
EXPERIMENTAL RESULT: 109

RECORD SEQUENCE: CACCGUUACAGAGGAUAUGGUACAUGAGGAUCACCCAUGUAAUAAAUGAGAAUUUCGGAUGUAUUCCAGAAGGCUGUAAUCGGC [Ostricism 65 - Jieux - Exclusion NG 2] (Eterna round: R96, puzzle: Exclusion NG 2)
UNIT TEXT: nM
EXPERIMENTAL RESULT: 53.5

RECORD SEQUENCE: UGUUGUCGCGCAGGAUAUGAGGAUCACCCAUGUAGAGGAUAUGAAAAGAAGGCUCUGAGGAUUACCCAGAAGGGCGGGACAACU [pwkr exNG2 2xF5 2xFMN.25] (Eterna round: R96, puzzle: Exclusion NG 2)
UNIT TEXT: nM
EXPERIMENTAL RESULT: 400

Give apparent KD of MS2 coat protein (MS2 coat protein) of the following sequence: UUACGGAUAGAGGAUAUAUUAAGGAAGGUUACGAUAGAAGGCUAGACAUGAGGAUCACCCAUGUAUAUUGGGAU [JR_Ex6_Sub072] (Eterna round: R97, puzzle: Exclusion 6)
144

Give apparent KD of MS2 coat protein (MS2 coat protein) of the following sequence: AUAAUGUAAGGAUAUCAGUCGACUAGCCUCGGCUAGUCGACUGAGAAGGUACAUGAGGAUCACCCAUGUGAUUA [E4/10-A2] (Eterna round: R97, puzzle: Exclusion 4)
191

Give apparent KD of MS2 coat protein (MS2 coat protein) of the following sequence: ACAUGAGGAUCACCCAUGUCUGGCUGGUCUGCUCCGGCUGUUGAGGAUAUAGUUCGGUGUUCGCGCUAGAAGGUGAGGGCUGGC [Aenatbe mod 37] (Eterna round: R96, puzzle: Exclusion NG 3)
35.6
